- Test method notes: Plasma pharmacokinetics after oral TAK-285 (LC-MS/MS, noncompartmental)
- Type: in vivo, human (Japanese patients)
- Assay setup: human, plasma, oral, 300 mg, single dosing; 300 mg b.i.d., repeated administration cohort; mean (s.d.); read-out: t1/2 (converted)
Experimental endpoint: half-life (h)
Numeric answer only, unit h assumed.

## Task Identify measured half-life corresponding to CC(C)(O)CC(=O)NCCn1ccc2ncnc(Nc3ccc(Oc4cccc(C(F)(F)F)c4)c(Cl)c3)c21
## Result 6.1

###

- Test method notes: Plasma pharmacokinetics after oral TAK-285 (LC-MS/MS, noncompartmental)
- Format: in vivo, human (Japanese patients)
- Assay setup: human, plasma, oral, 300 mg b.i.d., multiple dosing day 21; 300 mg b.i.d., dose escalation cohort; mean (s.d.); read-out: t1/2 (converted)
Experimental endpoint: half-life (h)
Numeric answer only, unit h assumed.

## Task Identify measured half-life corresponding to CC(C)(O)CC(=O)NCCn1ccc2ncnc(Nc3ccc(Oc4cccc(C(F)(F)F)c4)c(Cl)c3)c21
## Result 8.25

###

- Test method notes: Plasma pharmacokinetics after oral TAK-285 (LC-MS/MS, noncompartmental)
- Assay type: in vivo, human (Japanese patients)
- Assay setup: human, plasma, oral; multiple dosing day 21; 50 mg q.d., dose escalation cohort; mean (s.d.); read-out: AUC0–tau
Experimental endpoint: AUC (ng·h/mL)
Numeric answer only, unit ng·h/mL assumed.

## Task Identify measured AUC corresponding to CC(C)(O)CC(=O)NCCn1ccc2ncnc(Nc3ccc(Oc4cccc(C(F)(F)F)c4)c(Cl)c3)c21 [TAK-285]
## Result 2210

###

- Test method notes: Plasma pharmacokinetics after oral TAK-285 (LC-MS/MS, noncompartmental)
- Type: in vivo, human (Japanese patients)
- Assay setup: human, plasma, oral, 100 mg b.i.d., multiple dosing day 21; 100 mg b.i.d., dose escalation cohort; mean (s.d.)
- Protocol: In the dose escalation cohort, plasma samples for PK analysis were collected at predose and up to 72 h after single dose administration and on day 21 after repeated administration of TAK-285. Urine samples were also collected up to 24-h postdose. […] Concentrations of TAK-285 and M-I in plasma and urine were determined using validated liquid chromatography tandem mass spectrometry (LC-MS/MS) methods. […]
Experimental endpoint: Cmax (ng/mL)
Numeric answer only, unit ng/mL assumed.

## Task Identify measured Cmax corresponding to CC(C)(O)CC(=O)NCCn1ccc2ncnc(Nc3ccc(Oc4cccc(C(F)(F)F)c4)c(Cl)c3)c21
## Result 774

###

- Test method notes: Plasma pharmacokinetics after oral TAK-285 (LC-MS/MS, noncompartmental)
- Format: in vivo, human (Japanese patients)
- Assay setup: human, plasma, oral, 300 mg, single dosing; 300 mg b.i.d., dose escalation cohort; mean (s.d.); read-out: t1/2 (converted)
Experimental endpoint: half-life (h)
Numeric answer only, unit h assumed.

## Task Identify measured half-life corresponding to CC(C)(O)CC(=O)NCCn1ccc2ncnc(Nc3ccc(Oc4cccc(C(F)(F)F)c4)c(Cl)c3)c21
## Result 7.5

###

- Test method notes: Plasma pharmacokinetics after oral TAK-285 (LC-MS/MS, noncompartmental)
- Assay type: in vivo, human (Japanese patients)
- Assay setup: human, plasma, oral, 100 mg, single dosing; 100 mg b.i.d., dose escalation cohort; median (range)
Experimental endpoint: Tmax (h)
Numeric answer only, unit h assumed.

## Task Identify measured Tmax corresponding to CC(C)(O)CC(=O)NCCn1ccc2ncnc(Nc3ccc(Oc4cccc(C(F)(F)F)c4)c(Cl)c3)c21
## Result 2
